tested on: HSV-1 Strain F; assay: Viral qPCR assay, HSV-1 in Vero cells; type: cell-based, Herpes Simplex Virus type 1; details: Human alphaherpesvirus 1, Vero, 72 h, read-out: HSV1 VERO Cell (EC50)
pEC50: −log10 of the molar value.
Metric: pEC50

Examples with their reported pEC50 follow.
| Compound | Recorded Number |
| --- | --- |
| CC(C)C(=O)NCCn1nc(C(=O)NCc2ccc(Cl)cc2)c2c1CN(C[C@H]1CCC(=O)N1)C2 | 4.00 |
| O=C1CC[C@H](CN2Cc3c(C(=O)NCc4ccc(Cl)cc4)nn(CCn4ccc(Cl)n4)c3C2)N1 | 5.92 |
| O=C1CC[C@H](CN2Cc3c(C(=O)NCc4ccc(Cl)cc4)nn(CC4(CF)COC4)c3C2)N1 | 4.69 |
| Cn1nc(C(=O)NCc2ccc(Cl)cc2F)c2c1CN(C[C@H]1CCC(=O)N1)C2 | 4.51 |

1: O=C1CCC(CC2Cc3c(C(=O)NCc4ccc(Cl)cc4)nn(CCN4CC(F)(F)C4)c3C2)N1 (stereo not shown)
2: Cn1nc(C(=O)NCc2ccc(Cl)c(F)c2)c2c1CN(C[C@H]1CCC(=O)N1)C2
3: CC(C)[C@H]1c2c(c(C(=O)NCc3ccc(Cl)cc3)nn2C)CN1C[C@@H]1CCC(=O)N1
-- ask Let's sort these by pEC50, smallest first. Go ahead? Submit the labels in the order that the ranking request calls for.
-- reply 1, 2, 3
(1: 5.14, 2: 5.55, 3: 6.66)
